Entries and their fold change (FC)
Tested on: MCF7
Assay: Induction of ROS generation in human MCF7 cells assessed as increase in green fluorescence measured after 24 hrs by H2DCFDA dye based confocal microscopy relative to control
Format: functional
endpointLabel: fold change (FC)

1. CC(C)Cc1ccc(C(C)C(=O)OCCCCC[P+](c2ccccc2)(c2ccccc2)c2ccccc2)cc1 (centres undefined); 3.2
2. COc1ccc2c(c1)c(CC(=O)OCCCCC[P+](c1ccccc1)(c1ccccc1)c1ccccc1)c(C)n2C(=O)c1ccc(Cl)cc1; 2.4
3. COc1ccc2c(c1)c(CC(=O)O)c(C)n2C(=O)c1ccc(Cl)cc1; 2.4
4. CC(C)Cc1ccc(C(C)C(=O)O)cc1 (centres undefined); 1.3
